Cited source for all entries: patent US20240182536A1

# system.name: T1, interleukin 18 binding protein (IL-18BP) (UniProt O95998 31-194)
# T1 sequence (looked up): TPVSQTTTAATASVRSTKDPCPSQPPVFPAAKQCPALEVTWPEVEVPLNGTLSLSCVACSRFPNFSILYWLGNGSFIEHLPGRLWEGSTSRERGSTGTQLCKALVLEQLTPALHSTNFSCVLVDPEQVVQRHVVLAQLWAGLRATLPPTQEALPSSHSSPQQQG
# assay.summary: cell-based or functional assay
Reported Ratio (-BP/+BP), DF-100,000 values follow for various binders
observation.type: Ratio (-BP/+BP), DF-100,000

[[record]]
binder = "IL-18 variant L9V, K53H, S55M (ligand) YFGKLESKVSVIRNLNDQVLFIDQGNRPLFEDMTDSDMRDNAPRTIFIISMYHDMQPRGMAVTISVKSEKISTLSSENKIISFKEMNPPDNIKDTKSDIIFFQRSVPGHDNKMQFESSSYEGYFLASEKERDLFKLILKKEDELGDRSIMFTVQNED"
observation_type = "Ratio (-BP/+BP), DF-100,000"
experimental_result = 1.01

[[record]]
binder = "IL-18 variant K53N, S55Y (ligand) YFGKLESKLSVIRNLNDQVLFIDQGNRPLFEDMTDSDMRDNAPRTIFIISMYNDYQPRGMAVTISVKSEKISTLSSENKIISFKEMNPPDNIKDTKSDIIFFQRSVPGHDNKMQFESSSYEGYFLASEKERDLFKLILKKEDELGDRSIMFTVQNED"
observation_type = "Ratio (-BP/+BP), DF-100,000"
experimental_result = 1.02

